- assay text: HepaRG cellular metabolic stability
- condition: human, other cell line, HepaRG Clint,u, calculated from cellular t1/2
# hepatocyte CLint at 20 μM per record follows
parameter measured: hepatocyte CLint at 20 μM

[
  {
    "compound": "C[C@H](Cn1cnc2c(N)ncnc21)OCP(=O)(O)OCCCOCCCCCCCCCCCCCCCC(F)(F)F.N [compound 1]",
    "measured": "~29 µL/min/1e6 cells"
  },
  {
    "compound": "C[C@H](Cn1cnc2c(N)ncnc21)OCP(=O)(O)OCCCSCCCCCCCCCCCCC1CCCCC1.N [16h]",
    "measured": "18 to 19 µL/min/1e6 cells"
  },
  {
    "compound": "C[C@H](Cn1cnc2c(N)ncnc21)OCP(=O)(O)OCCCSCCCCCCCCCCCCC#CC(C)(C)C.N [15e]",
    "measured": "18 to 19 µL/min/1e6 cells"
  }
]
